# Tested on: HRV type 2
# ASSAY_INFO: Inhibition of viral cytopathic effect (CPE), visual scoring or neutral red, HRV type 2 in KB cells
# Assay type: cell-based, human rhinovirus
# APPLIED_CONDITIONS: selectivity index = CC50 or MTC divided by EC50; HRV type 2, KB cells
This listing pairs compounds with measured Activity on Rhinovirus Type 2 SI.

These solved cases illustrate the format of a correct answer.
INSERT INTO measurements (compound, property_name, experimental_result) VALUES
  ('Clc1ccc(N2CCC(CCOc3ccc(C=NOCc4ccccc4)cc3)CC2)nn1 [Compound 15]', 'Activity on Rhinovirus Type 2 SI', '<1'),
  ('CCON=Cc1ccc(OCCC2CCN(c3ccc(OCC(F)(F)F)nn3)CC2)cc1 [Compound 21]', 'Activity on Rhinovirus Type 2 SI', '>3'),
  ('CCON=Cc1ccc(OCC2CCCN(c3ccc(Cl)nn3)C2)cc1 (stereo not drawn) [Compound 28]', 'Activity on Rhinovirus Type 2 SI', '>17'),
  ('CCOCCOCCON=Cc1ccc(OCCC2CCN(c3ccc(Cl)nn3)CC2)cc1 [Compound 20]', 'Activity on Rhinovirus Type 2 SI', 1),
  ('CCON=Cc1ccc(OCCC2CCN(c3ccc(OC)nn3)CC2)cc1 [Compound 26]', 'Activity on Rhinovirus Type 2 SI', '>6');

Pending compound:
# get_value(readout='Activity on Rhinovirus Type 2 SI', item= CON=C(C)c1ccc(OCCC2CCN(c3ccc(Cl)nn3)CC2)c(OC)c1 [Compound 19] )
>53
